Value source: paper PMC4981864

Assay: Steady-state tryptophan fluorescence and CD with and without POPC liposomes
Format: physicochemical
Conditions: with POPC liposomes pH 3; normalized on area for peptide at pH 8 in absence of POPC
Peptide text beside a SMILES is read from it.
Quantity Measured: S, normalized area under the spectra, Pep-PC, pH3

Exam item: Write down S, normalized area under the spectra, Pep-PC, pH3 measured for item O=C(O)CC[C@@H]1NC(=O)[C@H](Cc2c[nH]c3ccccc23)NC(=O)[C@H](CS)NC(=O)[C@H](Cc2c[nH]c3ccccc23)NC(=O)[C@H](CCC(=O)O)NC(=O)[C@H](Cc2c[nH]c3ccccc23)NC(=O)[C@H](CCC(=O)O)NC(=O)[C@H](Cc2c[nH]c3ccccc23)NC1=O [c[(WE)3WC]] (cyclo(CWEWEWEW))
Marked response: 1.7±0.3

Exam item: Write down S, normalized area under the spectra, Pep-PC, pH3 measured for item CC(C)C[C@@H]1NC(=O)[C@H](CS)NC(=O)[C@H](Cc2c[nH]c3ccccc23)NC(=O)[C@H](CCC(=O)O)NC(=O)[C@H](CC(C)C)NC(=O)[C@H](CCC(=O)O)NC(=O)[C@H](CC(C)C)NC(=O)[C@H](CCC(=O)O)NC(=O)[C@H](CC(C)C)NC(=O)[C@H](CCC(=O)O)NC1=O [c[(LE)4WC]] (cyclo(CLELELELEW))
Marked response: 1.1±0.1
